Biological target: T1, Human VEGFA165 (human, UniProt P15692-4 27-191)
T1 construct: treated as the same molecule; also called antigen VEGFA
T1 sequence (P15692 other isoform, or with tags, fused parts or gaps limits assumed): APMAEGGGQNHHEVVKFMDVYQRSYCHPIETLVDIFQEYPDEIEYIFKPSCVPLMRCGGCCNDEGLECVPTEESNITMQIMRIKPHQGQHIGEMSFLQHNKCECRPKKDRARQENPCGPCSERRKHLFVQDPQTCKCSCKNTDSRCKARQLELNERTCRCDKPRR
Assay: competition ELISA on coated VEGFA, competitor VEGFR2-ECD-Fc 2 nM
Items are presented alongside their recorded Maximum inhibition rate (%).
observable: Maximum inhibition rate (%)

INSERT INTO results (binder, observable, quantitative_readout) VALUES
  ('V1-com-74-78-97 (VHH, Humanized V1) VHH: EVQLVESGGGLVQPGGSLRLSCAASGRTFSSYTMGWFRQAPGKEREFVVAISKGGYKYDSVSLEARFTISRDNAKNTVYLQMNSLRAEDTAVYYCASTRAYGSSRLRLADTYEYWGQGTLVTVSS', 'Maximum inhibition rate (%)', 94.4),
  ('V1-SA1 (VHH, Humanized V1; also called humanized antibody V1-SA1; monovalent nanobody V1-SA1) VHH: EVQLVESGGGLVQPGGSLRLSCAVSGRTFSSYTMGWFRQAPGKEREFVVAISKGGYKYDSVSLEARFTISRDNAKNTVYLQMNSLRPEDTAVYYCAATRAYGSSRLRLADTYEYWGQGTLVTVSS', 'Maximum inhibition rate (%)', 94.6);

These data points were gathered from patent EP4582447A1.
